- SYSTEM_UNDER_TEST: Cholinesterase (Equus caballus)
- Sequence (P81908 whole entry): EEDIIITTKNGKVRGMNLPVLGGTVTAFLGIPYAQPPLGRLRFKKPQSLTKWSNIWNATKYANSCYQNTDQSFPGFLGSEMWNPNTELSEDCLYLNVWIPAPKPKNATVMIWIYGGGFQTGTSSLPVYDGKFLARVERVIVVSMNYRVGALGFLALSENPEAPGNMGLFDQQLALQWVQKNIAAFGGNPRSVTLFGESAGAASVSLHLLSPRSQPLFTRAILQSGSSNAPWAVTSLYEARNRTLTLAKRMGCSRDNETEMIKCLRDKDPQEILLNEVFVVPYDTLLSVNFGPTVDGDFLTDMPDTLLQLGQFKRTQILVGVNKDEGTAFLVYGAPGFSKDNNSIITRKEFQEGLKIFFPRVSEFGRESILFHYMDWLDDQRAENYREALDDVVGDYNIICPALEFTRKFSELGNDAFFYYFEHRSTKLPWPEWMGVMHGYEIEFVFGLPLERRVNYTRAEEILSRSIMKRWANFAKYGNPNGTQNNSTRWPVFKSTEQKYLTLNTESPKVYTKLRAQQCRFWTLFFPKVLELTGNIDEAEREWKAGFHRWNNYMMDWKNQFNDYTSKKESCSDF
- TEST_SUMMARY: Non-competitive inhibition of horse serum BuChE using butyrylthiocoline iodide as substrate incubated for 20 mins by Lineweaver-Burk plot analysis
Would you kindly list pKi for each of these compounds?
Give bare numbers, as −log10 of the molar value.

See these solved cases before continuing.
[
  {
    "SMILES_INPUT": "COc1cccc(CN2CCC(/C=C3\\Cc4cc(OC)ccc4C3=O)CC2)c1",
    "pKi": 5.46
  },
  {
    "SMILES_INPUT": "COc1cccc2c1C(=O)/C(=C/C1CCN(Cc3ccc4c(c3)OCO4)CC1)C2",
    "pKi": 5.19
  },
  {
    "SMILES_INPUT": "COc1ccc2c(c1)C(=O)/C(=C/C1CCN(Cc3ccc4c(c3)OCO4)CC1)C2",
    "pKi": 5.36
  }
]

For the 5 compounds below, give their pKi values.
1. COc1cccc(CN2CCC(/C=C3\Cc4cccc(OC)c4C3=O)CC2)c1
2. COc1cccc(CN2CCC(/C=C3\Cc4ccc(OC)cc4C3=O)CC2)c1
3. COc1cc2c(cc1O)C(=O)/C(=C/C1CCN(Cc3ccccc3)CC1)C2
4. O=C1/C(=C/C2CCN(Cc3ccccc3)CC2)Cc2cc3c(cc21)OCO3
5. COc1ccc2c(c1)C/C(=C\C1CCN(Cc3ccccc3)CC1)C2=O

1: 5.62; 2: 5.41; 3: 4.97; 4: 5.14; 5: 5.50

For the 2 compounds below, give their pKi values.
1. COc1cc2c(cc1O)C/C(=C\C1CCN(Cc3ccccc3)CC1)C2=O
2. O=C1/C(=C/C2CCN(Cc3ccccc3)CC2)Cc2ccc(O)cc21

1. 4.97
2. 5.25
